test system: eIF2-GTP-Met-tRNAi ternary complex; test: Ternary complex assay (dual luciferase, firefly/renilla ratio) in stable KLN-tTA/pBISA-DL(ATF-4) cells; HTS and hit confirmation; format: cell-based, mouse; details: anti-cancer agents at 20 μM, ternary complex assay
Peptide text beside a SMILES is read from it.
EXPERIMENTAL_READOUT: Relative F-luc/R-luc Ratio (+/− SEM)

Challenge: Recorded Relative F-luc/R-luc Ratio (+/− SEM) of CC(C)Cn1c(=O)n(C)c(=O)c2[nH]cnc21 , please.
Response given: 1.1 + 0.2

Challenge: Recorded Relative F-luc/R-luc Ratio (+/− SEM) of N=C(N)NC(=O)c1nc(Cl)c(N)nc1N [Amiloride] , please.
Response given: 1.1 + 0.3

Challenge: Recorded Relative F-luc/R-luc Ratio (+/− SEM) of CC(=O)O.NCC(=O)N[C@@H](Cc1c[nH]cn1)C(=O)O [Glycyl-1-histidyl acetate] (H-Gly-His-OH) , please.
Response given: 1 + 0.1

Challenge: Recorded Relative F-luc/R-luc Ratio (+/− SEM) of CC[C@@]1(O)C(=O)OCc2c1cc1n(c2=O)Cc2cc3ccccc3nc2-1 , please.
Response given: 1.3 + 0.3

Challenge: Recorded Relative F-luc/R-luc Ratio (+/− SEM) of C=C1[C@@H](O)[C@@H]2O[C@]3(CC[C@H](/C=C/[C@@H](C)[C@@H]4CC(C)=C[C@@]5(O[C@H](C[C@@](C)(O)C(=O)O)CC[C@H]5O)O4)O3)CC[C@H]2O[C@@H]1[C@@H](O)C[C@H](C)[C@H]1O[C@@]2(CCCCO2)CC[C@H]1C , please.
Response given: 1 + 0.3
